# Test system: UACC-62 melanoma
# MEASUREMENT NOTES: NCI-60 one-dose screen, 48 h
# SETUP CONDITIONS: 10 µM unless noted
Compounds without any hit were thinned out: in the full panel of roughly 83,000, 20% have a hit. The source made the active and inactive calls. Rule for the calls: active = growth percent below 10; inactive = the rest.
Respond with a class label; see t (active), f (inactive)

Check out these entries, answers already filled in.
• Oc1c(Cl)cc(Cl)c2ccc(Cn3cc(-c4cc(F)cc(F)c4)nn3)nc12 = f
• COc1ccc2c(O)c(/C=C3\N=Nc4ncccc43)oc2c1C[C@H]1CCNC[C@H]1F = t
• O=C1C(Cl)=C(Nc2ccc(O)cc2)C(=O)N1Cc1ccc(Cl)cc1 = f

Then there is this molecule:
Which result was noted for this molecule in the test: CCNc1nc(-c2ccc(Cl)c(OC)c2)c(-c2ccnc(NCCCNS(=O)(=O)c3ccc(Cl)cc3)n2)s1
f
